Examples of compounds with documented growth follow.
# System: M14 melanoma
# protocol details: NCI-60 one-dose screen, 48 h (100 = growth as untreated, 0 = no growth, -100 = all killed)
# conditions used: 10 µM unless noted
# Method: Growth inhibition of the M14 human tumor cell line is measured as a screen for anti-cancer activity. Cells are grown in 96 well plates and exposed to the test compound for 48 hours. Compounds are tested at a single concentration, which is 10^-5 M for most compounds. The reported endpoint is percent growth (GI% or GIPRCNT), where numbers from 0 - 100% represent growth inhibition, and numbers from -100% - 0 represent cell death. For example, a value of 40 represents 60% growth inhibition. […]
Compounds without any hit were thinned out: in the full panel of roughly 83,000, 20% have a hit.
observation type: growth (%)

| compound | result value |
| --- | --- |
| C/C(=C\CCc1ccsc1)CC/C=C(\C)CCCN1CCSCC1 | 96.2 |
| CCSc1nc(-c2cccs2)n2nc(-c3ccco3)cc2n1 | 109 |
| COc1ccccc1NC(=O)c1sc2nc3c(cc2c1N)C(=O)CCC3 | 47.1 |
| CCCCCCC(CC#N)(CCC)CCCC (stereo unspecified) | 110 |
| O=C1Nc2ccc(Cl)cc2[C@@](C#CC2CC2)(C(F)(F)F)O1 | 86.2 |
| NS(=O)(=O)c1cc2c(cc1Cl)NC=NS2(=O)=O | 96.4 |

---

# Tested on: IGROV1 ovarian
# protocol details: NCI-60 one-dose screen, 48 h (100 = growth as untreated, 0 = no growth, -100 = all killed)
# conditions used: 10 µM unless noted
# Protocol: Growth inhibition of the IGROV1 human tumor cell line is measured as a screen for anti-cancer activity. Cells are grown in 96 well plates and exposed to the test compound for 48 hours. Compounds are tested at a single concentration, which is 10^-5 M for most compounds. The reported endpoint is percent growth (GI% or GIPRCNT), where numbers from 0 - 100% represent growth inhibition, and numbers from -100% - 0 represent cell death. For example, a value of 40 represents 60% growth inhibition. […]
The panel holds about 83,000 compounds, 20% with a hit somewhere; the sample as a whole holds those more often.
# reported growth; entries follow

| molecule | tested on | measure unit | growth |
| --- | --- | --- | --- |
| Nc1ccccc1-c1ccn[nH]1 | IGROV1 ovarian | % | 84.2 |
| Cc1ccc(-c2c3c(N)nc(-c4ccncc4)nc3nc3c2c(C)nn3-c2ccccc2)cc1 | IGROV1 ovarian | % | 71.7 |
| N#Cc1ncc(-c2ccc(C(F)(F)F)cc2)c(NC2CCCCCC2)n1 | IGROV1 ovarian | % | 32.5 |
| O=C1C2C(C(=O)N1CC[Se][Se]CCN1C(=O)C3C(C1=O)[C@H]1C=C[C@@H]3C1)[C@H]1C=C[C@@H]2C1 (stereo partly specified) | IGROV1 ovarian | % | -47.2 |
| O=CN1N=C(c2ccc(Nc3ccnc4cc(Cl)ccc34)cc2)CC1c1ccc(Cl)cc1 (stereo unspecified) | IGROV1 ovarian | % | 27.3 |
| N=C1c2nc3n(c2C(=O)c2nc4n(c21)CCCCC4)CCCCC3 | IGROV1 ovarian | % | 130 |
| Clc1ccc(C2=NN(c3ccc(Cl)cc3)C(c3cccc(Nc4ccnc5cc(Cl)ccc45)c3)C2)cc1 (stereo unspecified) | IGROV1 ovarian | % | 75.4 |
| COc1cnc2c(c1)C(=O)c1c-2n(CCCN2CCOCC2)c(=O)c2cc(F)ccc12 | IGROV1 ovarian | % | 12.2 |
| CCN(CC)CCCCCCCNc1c2ccc(Cl)cc2nc2ccc(OC)cc12 | IGROV1 ovarian | % | -64.3 |
| COc1ccc2nc(N/N=C(\C)c3ccccn3)cc(C)c2c1 | IGROV1 ovarian | % | -44.1 |
| CC(=O)/C(=C/c1ccc(Cl)cc1)C(=O)c1ccccc1 | IGROV1 ovarian | % | 91.6 |
| O=C(CSc1ncc(-c2ccccc2)n1-c1ccccc1)Nc1ccc(-c2nc3ccccc3s2)cc1 | IGROV1 ovarian | % | 73.4 |
| C/C=C(/C(=C/C)c1ccc(O)cc1)c1ccc(O)cc1 | IGROV1 ovarian | % | 36.2 |
| O=[N+]([O-])c1ccc(N=Nc2c(Cl)cc(O)cc2Cl)cc1 | IGROV1 ovarian | % | 6.67 |
| O=C1NC(=O)/C(=C\c2ccco2)S1 | IGROV1 ovarian | % | 114 |
| Cn1c(N2N=C(c3ccc(Cl)cc3)CC2c2ccccc2)nc(-c2ccccc2)c(C#N)c1=O (stereo unspecified) | IGROV1 ovarian | % | 79 |
| N#CC1c2ccccc2C=CN1C(=O)N(c1ccccc1)c1ccccc1 (stereo unspecified) | IGROV1 ovarian | % | 13.5 |
| COc1cc(/C=C/C(=O)c2c(C)n([O-])c3ccc(Cl)cc3[n+]2=O)cc(OC)c1OC | IGROV1 ovarian | % | -62.2 |
| CCCCCCCCCCCCCCCCNC(=O)Nc1ccc2ccccc2c1 | IGROV1 ovarian | % | 101 |
| Cc1sc2nc(N3CCCCC3)[nH]c(=O)c2c1C | IGROV1 ovarian | % | 107 |
| COc1ccc2c(c1)CC[C@@H]1[C@@H]2CC[C@]2(C)[C@@H](O)C(=O)C[C@@H]12 | IGROV1 ovarian | % | 115 |

---

# Test system: MDA-MB-435 melanoma
# protocol details: NCI-60 one-dose screen, 48 h (100 = growth as untreated, 0 = no growth, -100 = all killed)
# conditions used: 10 µM unless noted
Compounds without any hit were thinned out: in the full panel of roughly 83,000, 20% have a hit.

| molecule | measure unit | growth |
| --- | --- | --- |
| COc1cc(NC(=O)NCc2ccco2)ccc1-c1ccc(NC(=O)NCc2ccco2)cc1OC | % | 76.5 |
| O=C(COc1ccc(/C=C2\Oc3ccc4ccccc4c3C2=O)cc1)c1ccc([N+](=O)[O-])cc1 | % | 104 |
| CCSCC1CC(O)(c2ccccc2)C(c2ccccc2)C(c2ccc(Cl)cc2)O1 (stereo not given) | % | -17.3 |
| COc1ccc2c(c1)[n+](=O)c(C(=O)/C=C/c1cc(OC)c(OC)c(OC)c1)c(C)n2[O-] | % | 69.5 |
| O=C(N/N=C/c1cccc(O)c1)c1ccc(C(F)(F)F)nc1Nc1cccc(C(F)(F)F)c1 | % | 51.2 |

---

# Test system: BT-549 breast
# protocol details: NCI-60 one-dose screen, 48 h
# conditions used: 10 µM unless noted
This is part of a sample that, as a whole, favours compounds with a hit. Of some 83,000 tested, about 20% had one in any assay. Activity calls are given as the source filed them. Rule for the calls: active = growth percent below 10; inactive = the rest.
Possible outcomes: active, inactive

| compound | label value |
| --- | --- |
| Cc1[nH]c(=O)[nH]c(=O)c1CCSSCCc1c(C)[nH]c(=O)[nH]c1=O | inactive |
| COC(=O)C1=CCC(n2cnc3c(N)ncnc32)O1 (stereo not given) | inactive |
| CN1C(=O)C(C2=NN(C=O)C(c3ccc(F)cc3)C2)C(=O)N(C)C1=O (stereo not given) | inactive |
| N#Cc1c(-c2ccccc2)cc(-c2ccccc2)n(CCC(=O)O)c1=O | inactive |
| CN1CCN(CCCOc2ccc3ncnc(Nc4ccc(OCc5cccc(F)c5)c(Cl)c4)c3c2)CC1 | inactive |
| COCCCNS(=O)(=O)c1ncnc2nc[nH]c12 | inactive |
| O=C1CSC(c2ccccc2Cl)N1c1nnc(Cn2nnc3ccccc32)o1 (stereo not given) | inactive |
| C[C@]12CCC(=O)C=C1CCC1C2[C@@H](O)C[C@@]2(C)C1CC[C@]2(O)C(=O)COC(=O)CCC(=O)O (stereo not given in full) | inactive |
| Cc1[nH]cnc1/C=C1\SC(N2CCCCC2)=NC1=O | inactive |
| CCCCCc1c(C)[nH]c(/C=C2\N=C(c3ccc[nH]3)C=C2Oc2ccc(Cl)cc2)c1C | active |

---

Reported growth by item:
# Tested on: UACC-257 melanoma
# protocol details: NCI-60 one-dose screen, 48 h (100 = growth as untreated, 0 = no growth, -100 = all killed)
# conditions used: 10 µM unless noted
The panel holds about 83,000 compounds, 20% with a hit somewhere; the sample as a whole holds those more often. Active and inactive are the calls of the source. How the source made its calls: active means growth percent below 10; inactive means the rest.
observation type: growth

| compound | observation type | result value |
| --- | --- | --- |
| CCC(=O)Nc1cc2c(cc1Cl)-c1ccccc1C2 | growth | 96.6% (inactive) |
| COc1cc(Cl)cc(-c2nn(-c3cccc(NC(=O)c4cc(C(F)(F)F)cc(C(F)(F)F)c4)c3)cc2-c2ccncc2)c1 | growth | 79.3% (inactive) |
| CC(=O)OCC(=O)[C@@]1(O)CC[C@H]2[C@@H]3CCC4=CC(=O)CC[C@]4(C)[C@@]3(F)[C@@H](O)C[C@@]21C | growth | 94.6% (inactive) |
| COc1ccc(NC(=O)c2ccc(-c3ccccc3)cc2)c(C(N)=O)c1 | growth | 102% (inactive) |
| CCOC(=O)CCN(c1c(Cl)ssc1=O)C(C)C | growth | 95.5% (inactive) |
| Nc1ccccc1-c1ccn[nH]1 | growth | 103% (inactive) |
| CC(=O)N1N=C(c2ccc(Cl)cc2)CC1c1c(C)nn(-c2ccccc2)c1N(C)Cc1ccccc1 (stereo unspecified) | growth | 50.4% (inactive) |
| CCSc1nc(Nc2ccc(S(=O)(=O)Nc3ccon3)cc2)c(C#N)c(-c2cccc(Br)c2)n1 | growth | 115% (inactive) |
| Cc1cc(C)c(C(=O)c2cccs2)c(C)c1 | growth | 99.3% (inactive) |
| COc1ccc(-n2cnc3cc(C(=O)N4CCCCC4)ccc32)cc1 | growth | 101% (inactive) |
| O=C(/C=C/c1cccc(O)c1)c1cccc(-n2cc(-c3ccccc3)[nH]c2=O)c1 | growth | 95.6% (inactive) |
| c1ccc(-c2nc(Nc3nccnn3)c3ccccc3n2)cc1 | growth | 109% (inactive) |
| CCN1CCN(c2nc(NNC(=O)Cc3ccccc3)nc(N3CCN(C(c4ccccc4)c4ccccc4)CC3)n2)CC1 | growth | -51.5% (active) |
| CC1c2ccccc2-c2ccccc2N1C (stereo unspecified) | growth | 114% (inactive) |
| COc1ccc(OC)c(CCn2cncc2-c2c[nH]c3cc(Br)ccc23)c1 | growth | 29.9% (inactive) |
| Fc1ccccc1C1c2ccccc2-c2nccn21 (stereo unspecified) | growth | 96.6% (inactive) |
| O=C(COc1cccc(/C=C2\Oc3ccc4ccccc4c3C2=O)c1)c1ccc([N+](=O)[O-])cc1 | growth | 102% (inactive) |
| COc1cc(/C=C2\SC(N3CCCCC3)=NC2=O)ccc1OCCCCCCOc1ccc(/C=C2\SC(N3CCCCC3)=NC2=O)cc1OC | growth | -0.986% (active) |
| COc1cccc(-c2nc(-c3ccc(N)cc3)co2)c1 | growth | 93.1% (inactive) |
| Oc1ccc(/C=N/Nc2nc3ccccc3s2)c(O)c1 | growth | 37.4% (inactive) |
| CCCCCCCCN(CCO)CCCCCCCC | growth | 94.3% (inactive) |
